The reader will find reported IC50 values listed item by item below.
SYSTEM UNDER TEST: T1, human GIP receptor (human, UniProt P48546 22-466)
T1 construct: whole, on cells; cAMP assay: whole PSC-HEK-293 cells stably expressing the receptor; also called hGIPR; hGIP R
T1 sequence (looked up): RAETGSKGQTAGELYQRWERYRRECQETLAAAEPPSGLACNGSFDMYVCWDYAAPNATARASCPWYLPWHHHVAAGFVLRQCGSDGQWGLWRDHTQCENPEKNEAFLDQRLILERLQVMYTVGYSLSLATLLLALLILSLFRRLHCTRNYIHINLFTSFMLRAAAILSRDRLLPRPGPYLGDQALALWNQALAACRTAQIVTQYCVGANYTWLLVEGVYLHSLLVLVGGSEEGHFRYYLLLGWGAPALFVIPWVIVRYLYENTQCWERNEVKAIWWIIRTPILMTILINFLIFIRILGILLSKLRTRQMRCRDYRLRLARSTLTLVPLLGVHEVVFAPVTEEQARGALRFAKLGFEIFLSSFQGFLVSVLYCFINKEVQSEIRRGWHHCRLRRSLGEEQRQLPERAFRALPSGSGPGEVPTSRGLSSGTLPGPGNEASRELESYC
EXPERIMENT DESCRIPTION: [125I]GIP displacement, SPA beads with hGIPR HEK-293 membranes
Where no end group is shown, it is not given here. [ ]: non-standard residue; d: D form. The star is where a group is joined. DO3A(CH2CH2SO2CH2CH2) = O=C(O)CN1CCN(CCS(=O)(=O)CC*)CCN(CC(=O)O)CCN(CC(=O)O)CC1; DOTA = O=C(O)CN1CCN(CC(=O)O)CCN(CC(=O)*)CCN(CC(=O)O)CC1; Aib = CC(C)(N)C(=O)O
OUTCOME MEASURE: IC50 (nM)

>>> reported_result("H-Y[Aib]EGTFISDLSIALDRIHQEEFIEWLLAGGK(DOTA)-NH2 (also: Ga3+ complexed in DOTA on Lys31, also called Ga-S02-GIP-T4) [SEQ ID NO: 4 (GIP(1-30) analog with K(DOTA(Ga)) at position 31)]")
0.25
>>> reported_result("Y[Aib]EGTFISDLSIALDRIHQEEFIQWLLAGGC(DO3A(CH2CH2SO2CH2CH2))-NH2 (Printed: Y-Aib-EGTFISDLSIALDRIHQEEFIQWLLAGGC(VS-DO3A)-NH2) [SEQ ID NO: 5 (GIP(1-30) analog with C(VS-DO3A) at position 31, unloaded)]")
0.22
